# SUBJECT OF TEST: human Nav1.8 (Homo sapiens)
# Sequence (Q9Y5Y9 whole entry): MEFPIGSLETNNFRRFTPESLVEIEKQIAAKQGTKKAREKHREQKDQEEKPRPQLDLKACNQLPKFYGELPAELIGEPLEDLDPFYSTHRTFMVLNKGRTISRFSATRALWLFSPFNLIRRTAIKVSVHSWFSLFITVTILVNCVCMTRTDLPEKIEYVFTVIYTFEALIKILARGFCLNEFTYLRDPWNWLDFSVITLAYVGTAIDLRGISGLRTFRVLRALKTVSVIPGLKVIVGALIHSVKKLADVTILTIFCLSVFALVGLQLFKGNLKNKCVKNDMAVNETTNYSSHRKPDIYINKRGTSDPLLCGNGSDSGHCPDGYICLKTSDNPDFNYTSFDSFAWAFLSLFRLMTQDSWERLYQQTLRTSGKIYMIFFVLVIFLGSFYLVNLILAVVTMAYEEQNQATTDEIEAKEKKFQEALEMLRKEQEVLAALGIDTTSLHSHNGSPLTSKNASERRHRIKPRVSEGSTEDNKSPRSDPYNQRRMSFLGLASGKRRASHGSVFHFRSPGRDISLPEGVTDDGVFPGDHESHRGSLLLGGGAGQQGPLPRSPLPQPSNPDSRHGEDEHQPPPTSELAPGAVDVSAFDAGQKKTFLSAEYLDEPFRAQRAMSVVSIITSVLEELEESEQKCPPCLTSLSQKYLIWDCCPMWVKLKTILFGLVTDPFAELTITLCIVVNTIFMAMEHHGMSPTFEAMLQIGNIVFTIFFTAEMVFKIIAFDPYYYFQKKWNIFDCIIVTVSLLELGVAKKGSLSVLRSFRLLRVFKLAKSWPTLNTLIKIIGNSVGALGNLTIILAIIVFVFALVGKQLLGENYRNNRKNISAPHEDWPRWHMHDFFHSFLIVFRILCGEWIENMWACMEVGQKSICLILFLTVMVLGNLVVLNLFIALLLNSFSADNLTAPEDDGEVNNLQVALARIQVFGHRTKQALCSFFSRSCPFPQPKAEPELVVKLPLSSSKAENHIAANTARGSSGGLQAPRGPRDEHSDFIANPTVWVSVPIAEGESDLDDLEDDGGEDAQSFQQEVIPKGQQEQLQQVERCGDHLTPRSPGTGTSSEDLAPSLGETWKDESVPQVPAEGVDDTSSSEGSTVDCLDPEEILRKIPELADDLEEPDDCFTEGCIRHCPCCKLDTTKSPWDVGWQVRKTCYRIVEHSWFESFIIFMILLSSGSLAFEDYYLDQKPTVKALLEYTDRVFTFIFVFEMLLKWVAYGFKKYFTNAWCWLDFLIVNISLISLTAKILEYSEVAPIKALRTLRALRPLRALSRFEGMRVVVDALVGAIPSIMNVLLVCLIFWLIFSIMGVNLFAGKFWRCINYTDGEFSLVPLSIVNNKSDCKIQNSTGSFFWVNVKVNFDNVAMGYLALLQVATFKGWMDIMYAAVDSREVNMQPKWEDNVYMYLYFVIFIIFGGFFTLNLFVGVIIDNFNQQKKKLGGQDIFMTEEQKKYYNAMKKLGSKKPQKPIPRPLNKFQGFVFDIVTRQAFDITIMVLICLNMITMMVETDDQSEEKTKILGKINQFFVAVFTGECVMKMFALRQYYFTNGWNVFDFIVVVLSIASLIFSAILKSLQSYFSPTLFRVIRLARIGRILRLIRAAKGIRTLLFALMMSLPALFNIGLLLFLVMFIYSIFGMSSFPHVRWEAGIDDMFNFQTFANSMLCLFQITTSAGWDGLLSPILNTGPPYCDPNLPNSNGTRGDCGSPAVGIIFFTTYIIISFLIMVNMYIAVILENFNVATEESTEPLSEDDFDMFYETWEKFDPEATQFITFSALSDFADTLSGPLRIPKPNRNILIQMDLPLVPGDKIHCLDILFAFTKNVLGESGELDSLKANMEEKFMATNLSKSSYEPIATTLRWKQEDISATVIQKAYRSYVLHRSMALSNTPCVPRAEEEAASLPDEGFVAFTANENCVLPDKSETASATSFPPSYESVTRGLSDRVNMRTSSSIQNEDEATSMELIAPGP
# Sequence (Q9NY72 23-215 partner): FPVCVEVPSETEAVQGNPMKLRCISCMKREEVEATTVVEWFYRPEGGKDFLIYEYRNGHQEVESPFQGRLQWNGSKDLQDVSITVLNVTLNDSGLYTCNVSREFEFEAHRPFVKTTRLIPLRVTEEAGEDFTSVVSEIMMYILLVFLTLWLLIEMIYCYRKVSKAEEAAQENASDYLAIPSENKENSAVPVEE
# PROTOCOL DETAILS: whole-cell manual patch clamp dose-response, […] °C
READOUT NAME: Kd (nM)

[
  {
    "STRUCTURE STRING": "COc1c([C@H]2[C@H](C(=O)Nc3ccnc(C(N)=O)c3)O[C@@](C)(C(F)(F)F)[C@H]2C)ccc(F)c1F",
    "UNITS LABEL": "nM",
    "RESULT NUMBER": 0.072
  }
]

Source of measurements: paper PMC12146708
